Tested on: P388
Protocol: In vitro antitumor activity against P388 leukemia cells
Type: functional
Setup conditions: Mus musculus, read-out: ID50 (the source's name)
Endpoint name: pIC50
FYI, pIC50 means -log10 of a concentration in mol per litre.

Observe how each entry below is paired with its result.
{"Compound": "Cc1nc([SeH])c2cnn(C3O[C@H](CO)[C@@H](O)[C@H]3O)c2n1 (stereo partly drawn)", "pIC50": 5.51}
{"Compound": "OC[C@H]1OC(n2nc(Br)c3c([SeH])ncnc32)[C@H](O)[C@@H]1O (stereo partly drawn)", "pIC50": 5.64}

Lab note: next compound to report on.
# input Endpoint output: pIC50 of OC[C@H]1OC(n2ncc3c([SeH])ncnc32)[C@H](O)[C@@H]1O (stereo partly drawn) . Value?
# output 5.57

====

System: Vaccinia virus
Protocol: In vitro antiviral activity against Vaccinia virus
Type: functional
Setup conditions: Orthopoxvirus vaccinia; read-out: ED50 (the source's name)
pEC50: −log10 of the molar value.
Binary classification by pEC50, with 5 as an inclusive lower bound for MET; all other cases are NOT MET.

Answered examples (4):
{"Molecule": "OC[C@H]1OC(n2nc(Br)c3c([SeH])ncnc32)[C@H](O)[C@@H]1O (stereo partly specified)", "Cat": "MET"}
{"Molecule": "Cc1nc([SeH])c2cnn(C3O[C@H](CO)[C@@H](O)[C@H]3O)c2n1 (stereo partly specified)", "Cat": "NOT MET"}
{"Molecule": "Cc1nc(S)c2cnn(C3O[C@H](CO)[C@@H](O)[C@H]3O)c2n1 (stereo partly specified)", "Cat": "NOT MET"}
{"Molecule": "Cc1nc(N)c2cnn(C3O[C@H](CO)[C@@H](O)[C@H]3O)c2n1 (stereo partly specified)", "Cat": "NOT MET"}

Now consider a different molecule.
# input Identify whether the reported pEC50 of the following molecule is 5 or greater: Cc1nc2c(cnn2C2O[C@H](CO)[C@@H](O)[C@H]2O)c(=O)[nH]1 (stereo partly specified)
# output NOT MET

====

Protocol: Toxic level of the compound
Assay type: ADME
Endpoint name: Toxic level (µM)
Report only the number, with the unit µM understood.

Observe how each entry below is paired with its result.
{"Molecule": "OC[C@H]1OC(n2ncc3c([SeH])ncnc32)[C@H](O)[C@@H]1O (stereo not given in full)", "Toxic level / µM": 160}
{"Molecule": "Cc1nc([SeH])c2cnn(C3O[C@H](CO)[C@@H](O)[C@H]3O)c2n1 (stereo not given in full)", "Toxic level / µM": 500}
{"Molecule": "Cc1nc2c(cnn2C2O[C@H](CO)[C@@H](O)[C@H]2O)c(=O)[nH]1 (stereo not given in full)", "Toxic level / µM": 5000}

# input Endpoint output: Toxic level of Cc1nc(S)c2cnn(C3O[C@H](CO)[C@@H](O)[C@H]3O)c2n1 (stereo not given in full) . Value?
# output 5000

# input Endpoint output: Toxic level of OC[C@H]1OC(n2nc(Br)c3c([SeH])ncnc32)[C@H](O)[C@@H]1O (stereo not given in full) . Value?
# output 50
